- TEST SUMMARY: yeast display, Sf9 membrane polyspecificity reagent, FACS + sequencing; frameworks hold sequencing errors
RESULT TYPE: polyreactivity (PSR sort gate)

{"PRIMARY SEQUENCE": "QVQLVESGGALVQAGGSLRLSCAASGLTFRDNAIGWYRKAPGKERELVDAISTNGGSTYYADSVKGRFTISRDNAKNTVYLQMYSLKPEVTAVYYCAADYDYQYRYYYWGQGTQVTVTS", "RESULT": "low polyreactivity"}
{"PRIMARY SEQUENCE": "QVQLVESGGGLVQAGGSLRLSCAASGSIFNTYAMGWYRQAPGKEREFVASITYRGSNTYYADSVKGRFTISRDNAKNTVYLQMNSLKPEDTAVYDCAADSFDYRPEYDYWGQGTQVTVSS", "RESULT": "low polyreactivity"}
{"PRIMARY SEQUENCE": "QVQLVESGGGLVQAGGSLRLSCAASGSIFYVYAMGWYRQAPGKERELVAAIRRSGTSTYYADSVKGRFTISRDNAKNTVYLQMNSLKPEDSAVYYCAARYEVRHTLYNYWGQGTQVTVSS", "RESULT": "high polyreactivity"}
{"PRIMARY SEQUENCE": "QVQLVASGGGLVQAGGSLLLSCAASGSIFDYNAMGWYRKAPGKERELVAAISSSGGSTYYADSVKGRFTISRDNAKNTVYLQMNSLKPEDTAVYYCNNVSRYILGSGYGYWGQGNQVTVSS", "RESULT": "high polyreactivity"}
{"PRIMARY SEQUENCE": "QVQLVESGGGLVQAGGSLRLSCAASGLTFSVYTMGWYRQAPGKERELVAAITTSGGRTYYADSVKGRFTISRDNAKNTVYLQMNSLKPVDPAVYYCAAVRTGDTTGTMGYWGQGTQVTVSS", "RESULT": "high polyreactivity"}

###

- TEST SUMMARY: yeast display, Sf9 membrane polyspecificity reagent, FACS + sequencing; frameworks hold sequencing errors
RESULT TYPE: polyreactivity (PSR sort gate)

{"PRIMARY SEQUENCE": "QVQLVESGGGLDQAGGSLRLSCAASGRIFTTYAMGWYRQAPGKERELVAAISRSGGSTYYADSVKGRFTISRDNAKNTVYLQMNSLKPEDTAVYYCAAVPTSNSFRSSFYYWGQGTQVTVSS", "RESULT TYPE": "polyreactivity (PSR sort gate)", "RESULT": "high polyreactivity"}
{"PRIMARY SEQUENCE": "QGQLVESGGGLVQAGGSLRLSCAASGSIFTFYTLGWYREAPGKVRELVAAINWSGSRTYYAASVKGRFTISRDNAKNTVYLQMNSLKPEDTAVYYCNAAIRYDWYQVLWNFSRESNYWGQGTQVTVSS", "RESULT TYPE": "polyreactivity (PSR sort gate)", "RESULT": "high polyreactivity"}
{"PRIMARY SEQUENCE": "QVQLVESGGGLVQAGGSLRLSCADSGFIFTAYAMGWYRQAPGKERELVAAISRSGGRTYYADSVKGRFTISRDNAKNTVYLQMNSLKPEDTAVYYCNADFHSGGGYWGQGTQVTLSS", "RESULT TYPE": "polyreactivity (PSR sort gate)", "RESULT": "high polyreactivity"}

###

- TEST SUMMARY: yeast display, Sf9 membrane polyspecificity reagent, FACS + sequencing; frameworks hold sequencing errors
RESULT TYPE: polyreactivity (PSR sort gate)

{"PRIMARY SEQUENCE": "QVHLVESGGGLVQAGGSLRLSCGASGIIFFHYAMGWYRQAPGKERELVAAITWSGGYTYYADSVKGRFTISRDNAKNTVYLQMNSLKPEDTAVYYCNAVLHRRLYDYWGQGTQVTVSS", "RESULT": "high polyreactivity"}
{"PRIMARY SEQUENCE": "QVQLVESGGGLVQAGGSLRLSCAASGLTFVWYVMGWYRQAPGKERELVAAITSGGTTYYADSVKGRFTISRDNAKNTVYLQMNSLKPEDTAVYYCAAQWAGYGDLPWPYSVIVEFYYWGQGTQVTVSS", "RESULT": "low polyreactivity"}
{"PRIMARY SEQUENCE": "QVQLVESGGGLVQAGGSLRLSCAASGRIFFYYAMGWYRQAPGKERELVATITASGDSTYYADSVKGRFTISRDNAKDTVYLQMNSLKPEDTAVYYCAADDGDYYEVDYWGQGTQVTVSS", "RESULT": "low polyreactivity"}
{"PRIMARY SEQUENCE": "QVQLVESGGGLVQAGGSLRLSCAASGGTFPTNAMGWYRQAPGKERELVAAITSSGVRTYYADSVKGRFTISRDNAKNTVYLQMNSLKPEDTAVYYCATYSYTWMNYYWGQGTQVTVSS", "RESULT": "high polyreactivity"}
{"PRIMARY SEQUENCE": "QVQLVESGGGLVQAGGSLRLSCAASGIIFKYYAMGWSRQAPGKERELVAAISWTGDSTYADSVKGRFTISRDNAKNTVYLQMNSLKPEDTAVYYCAVAFRRVRSLGEGYWGQGTQVTVSS", "RESULT": "low polyreactivity"}
{"PRIMARY SEQUENCE": "QVQLVESGGGLVQAGGSLRLSCAASGSTFSRYAMGWYRQAPGKERELVAAISQGGGRTYYADSVKGRFTISRDNAKNTVYLQMNSLKPEDTAVYYCAAREYYRKPYDHWGQGTQVTVSS", "RESULT": "high polyreactivity"}
{"PRIMARY SEQUENCE": "QVQLVESGGGLVQAGGRLRLSCAASGIIFGTYAMGWYRPAPGQERELVAAINTGGTTYYADSVKGRFTISRDNAKNTVYLQMNSLKPEDTAVYYCAAEFTRYRYYYHKRPMDYWGQGTQVTVSS", "RESULT": "low polyreactivity"}
{"PRIMARY SEQUENCE": "QVQLVESGGGLVQAGGSLRLSCAASGSILNFYAMGWYRQAPGKERELVAAISSGGSTNYADSVKGRFTISRDNAKNTVYLQMNSLKPEDTAVYYCAATGGDRYEAYYYWGQGTQVTVSS", "RESULT": "low polyreactivity"}
{"PRIMARY SEQUENCE": "QVQLVESGGGLVQAGGSLRLSCAASGSIISVYVMGWYRQAPGTERELVASITSGASTNYADSVKGRFTISRDNETNTVYLQMNSLKPEDTAVYYCAARDWYDGFYYWGQGTQVTVSS", "RESULT": "low polyreactivity"}
{"PRIMARY SEQUENCE": "QVQLVESGGGLVQAGGSLRLSCAASGGTFSRYAMGWYRQAPGKERELVAAITRSGASTFYADSVKGRFTISRDNAKNTVYLQMNSLKPEDTAVYYCAADTYVYNEYDYWGQGTQVTVSS", "RESULT": "high polyreactivity"}
{"PRIMARY SEQUENCE": "QVQLVDSGGGLVQAGGSLRLSCAASGITFNSYVMGLYRQAPGKERELVAVISRGGGITYYADSVKGRFTISRDNAKNTVYLQMNSLKPEDTAVSYCAADHTHGYVLYYNDNYWGQGTQVTVSS", "RESULT": "high polyreactivity"}
